- System: S. aureus ATCC 25923
- experiment-notes: Tetrazolium (MTT) microplate assay of minimum inhibitory concentration
- Format: cell-based
- settings: Staphylococcus aureus, ATCC25923; 200 µg/mL
observation-type: inhibition at 200 µg/mL (%)
Numbers only here, please. The scale is %.

Solved entries (count: 3):
>>> value("CC(C)=CCOc1ccc(/C=N/NC(=O)c2ccncc2)cc1 [NH4]")
55
>>> value("CC(C)(C)OC(=O)COc1ccc(/C=N/NC(=O)c2ccncc2)cc1 [NH2]")
50
>>> value("COc1cc(/C=N/NC(=O)c2ccncc2)ccc1OCC(=O)OC(C)(C)C [NH1]")
55

Return inhibition at 200 µg/mL (reported value) for this compound: COc1cc(/C=N/NC(=O)c2ccncc2)ccc1OCC=C(C)C [NH3] 60

Look up and state reported inhibition at 200 µg/mL for CO/N=C(\C(=O)N[C@@H]1C(=O)N2C(C(=O)O)=C(CSc3nc(=O)c(=O)[nH]n3C)CS[C@H]12)c1csc(N)n1 [Ceftriaxone, reference compound] 96

Determine its reported inhibition at 200 µg/mL: CCCOc1ccc(/C=N/NC(=O)c2ccncc2)cc1 [NH6] 52

Specify inhibition at 200 µg/mL for CCCOc1ccc(/C=N/NC(=O)c2ccncc2)cc1OC [NH5] and stop. 58
